Just for reference, PubChem BioAssay (NCI) is where these values come from.

test system: M14 melanoma; assay: NCI tumour cell line growth inhibition, 48 h
Listed compounds paired with reported TGI

The examples below pair each entry with its known result.
- COc1ccc2c(c1O)-c1c(OC)c(OC)cc3c1[C@H](C2)[N+](C)(C)CC3: > 100 µM
- O=c1cc2n(c(=O)[nH]1)C1OC(C(O)C1O)[C@@H]2CCO (stereo partly specified): > 100 µM
- O=c1c2cc([N+](=O)[O-])ccc2n2n1Cc1ccccc1CC2: > 100 µM
- O=C1CCC2(c3ccc(F)cc3)Nc3ccccc3N12 (stereo unspecified): > 100 µM
- CC(NC(=O)c1ccccc1)C(=O)N(Cc1ccccc1)Cc1ccccc1 (stereo unspecified): 39.1 µM

Okay, next one:
Give me measured TGI, please, for this compound: CCc1nc2c(O)ccc(O)c2nc1C 28.3 µM
